- Test system: Hepatitis C virus core protein (core106 dimerization)
- procedure summary: blockers of core106 self-association – biochemical, TR-FRET, triplicate, confirmation (AID 2152);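 note: 0% = DMSO wells and 100% = unlabelled core106 competitor control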
- reported conditions: TR-FRET GST-/Flag-core106 dimerization, HTRF; at 5 µM; active compounds read high
The campaign covered roughly 2,300 compounds. About 25 (1%) were called active. The entries come from a sample that favours actives as a whole.
Some compounds, each annotated with its measured inhibition.
readout: inhibition (%)

1) COc1ccc(/C=C/C(=O)Nc2cc(C)nn2-c2nc3ccccc3n2Cc2cccc([N+](=O)[O-])c2)cc1    -5.15
2) O=C(CN(c1ccc(Cl)c(C(F)(F)F)c1)S(=O)(=O)c1ccccc1)N/N=C/c1cccc2c1OCCO2    -4.47
3) COc1ccc(NS(=O)(=O)c2ccc(O)c(NC(=O)c3cc4c(C)nn(-c5ccc(F)cc5)c4s3)c2)cc1    -2.83
4) O=C(O)C1Nc2c(O)cccc2C2C=CCC12 (stereo not given)    53.8
5) COc1ccc(C2C(C#N)=C(N)SC(N)=C2C#N)cc1OC    2.28
6) Cc1ccc(C)c(NC(=O)CSc2nc3nc(-c4cccs4)cc(C(F)(F)F)c3c(=O)[nH]2)c1    4.9
7) CC(C)C(C)(C#N)NC(=O)CSc1nc2scc(-c3ccco3)c2c(=O)n1-c1ccccc1 (stereo not given)    -0.21
8) Cc1sccc1C1C(C#N)=C(N)SC(N)=C1C#N    32.6
9) CCCCN(C(=O)c1cc(-c2ccco2)nc2ccccc12)c1c(N)n(CCCC)c(=O)[nH]c1=O    -1.63
10) Cc1ccc(C2C(C#N)=C(N)SC(N)=C2C#N)c(C)c1    58

###

- Tested on: Hepatitis C virus core protein (core106 dimerization)
- procedure summary: blockers of core106 self-association – biochemical, TR-FRET, triplicate, confirmation (AID 2152);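 note: 0% = DMSO wells and 100% = unlabelled core106 competitor control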
- reported conditions: TR-FRET GST-/Flag-core106 dimerization, HTRF; at 5 µM; active compounds read high
About 25 (1%) of roughly 2,300 compounds were called active. Many of the other results were omitted from the sample, so actives are more common in it than they were.
Some molecules, each annotated with its measured inhibition.
readout: inhibition (%)

1. O=C(OCC(=O)c1ccc(Cl)s1)c1cnccn1    1.14
2. Cc1cc(C)c(S(=O)(=O)N2CCOC2CNC(=O)C(=O)NCCc2ccc(S(N)(=O)=O)cc2)c(C)c1 (stereo not given)    -0.31
3. Cc1ccc(-c2csc(C3=C(O)CN(NC(=O)c4ccc([N+](=O)[O-])cc4)C3=N)n2)cc1    6.2
4. CNC(=O)COC(=O)c1cc(-c2ccco2)nc2ccccc12    12.2
5. CC(C)(C)c1nnc2sc(SC/C(O)=C(\C#N)c3nc4ccccc4[nH]3)nn2c1=O    0.37
6. N#Cc1ccsc1NC(=O)COc1ccc(-c2nnco2)cc1    3.2
7. O=C(NC(=S)Nc1ccc(-c2ccc(CO)o2)cc1)c1cccs1    -8.29
8. O=c1cc(-c2ccccc2Cl)c2c([nH]1)CCC2    -2.22
9. COc1ccc(-n2nc3cc(C)c(NC(=S)NC(=O)c4ccccc4C)cc3n2)cc1    14.3
10. CN(C(=O)COC(=O)c1cc(-c2ccco2)nc2ccccc12)C1CCS(=O)(=O)C1 (stereo not given)    49.6
